- Assay system: KAT-8 (Homo sapiens (Human), UniProt Q9H7Z6)
- Sequence (Q9H7Z6 other isoform, or with tags, fused parts or gaps): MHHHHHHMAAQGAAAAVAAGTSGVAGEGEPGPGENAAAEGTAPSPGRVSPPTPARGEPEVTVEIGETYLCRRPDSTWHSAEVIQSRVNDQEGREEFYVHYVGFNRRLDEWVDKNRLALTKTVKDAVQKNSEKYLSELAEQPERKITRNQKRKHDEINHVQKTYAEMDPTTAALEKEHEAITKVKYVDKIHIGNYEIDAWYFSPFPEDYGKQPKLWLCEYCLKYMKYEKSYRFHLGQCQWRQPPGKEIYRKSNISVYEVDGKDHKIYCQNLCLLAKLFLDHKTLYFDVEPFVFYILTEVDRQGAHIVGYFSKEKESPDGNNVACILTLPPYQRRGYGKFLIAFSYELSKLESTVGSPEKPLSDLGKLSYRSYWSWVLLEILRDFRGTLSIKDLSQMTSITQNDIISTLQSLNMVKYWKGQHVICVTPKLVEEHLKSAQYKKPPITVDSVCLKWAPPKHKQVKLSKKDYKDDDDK
- Method notes: KAT-8 biochemical inhibition assay (SAMDI mass spectrometry)
Give measured IC50 for each item. Keep answers brief.

Some compounds with recorded IC50:
[[record]]
compound = "Cn1cnc(-c2cc(Cl)c(F)c(C(=O)NNS(=O)(=O)C[C@H]3CCNC3)c2)c1"
result = "10 to 50 µM"

[[record]]
compound = "CCC1CC(CS(=O)(=O)NNC(=O)c2cc(-c3cn(C)cn3)cc(Cl)c2F)CC1=O (stereo not shown)"
result = "10 to 50 µM"

[[record]]
compound = "CCn1cnc(-c2cc(C)c(F)c(C(=O)NNS(=O)(=O)C3CCCCC3)c2)c1"
result = "> 100 µM"

[[record]]
compound = "Cn1cnc(-c2cc(Cl)c(F)c(C(=O)NNS(=O)(=O)C[C@H]3CCC[C@@H](OCc4ccccc4)C3)c2)c1"
result = "10 to 50 µM"


Respectfully, I request IC50 for each entry included below.
1. Cn1cnc(-c2cc(Cl)c(F)c(C(=O)NNS(=O)(=O)C[C@H]3CC[C@H]4CC[C@@H]3N4C(=O)OC(C)(C)C)c2)c1
2. CCNC(=O)N[C@H]1C[C@H](CS(=O)(=O)NNC(=O)c2cc(-c3cn(C)cn3)cc(Cl)c2F)C1
3. CC(=O)N[C@H]1C[C@@H](CS(=O)(=O)NNC(=O)c2cc(-c3cn(C)cn3)cc(Cl)c2F)C1
4. CCNC(=O)N1CCCC(CS(=O)(=O)NNC(=O)c2cc(-c3cn(C)cn3)cc(Cl)c2F)C1 (stereo not shown)
5. COCC(=O)N1CCCC(CS(=O)(=O)NNC(=O)c2cc(-c3cn(CCO)cn3)cc(C)c2F)C1 (stereo not shown)
6. CC(=O)N1CCCC(CS(=O)(=O)NNC(=O)c2cc(-c3cn(C)cn3)cc(Cl)c2F)C1 (stereo not shown)

Found:
["10 to 50 µM", "10 to 50 µM", "10 to 50 µM", "10 to 50 µM", "10 to 50 µM", "> 100 µM"]
